Listed here are molecules together with their documented log10(IC50).
Tested on: MCF7
measurement-notes: Antiproliferative activity against human MCF7 cells after 48 hrs by sulforhodamine B assay
Type: functional, cell-based
test-conditions: MCF7, 48 h
Reminder: these figures are log10 of reported IC50, in µM before transformation.

Answered cases to consult:
| molecule | experimental-value |
| --- | --- |
| CC1=C2[C@H]3OC(=O)C4(CC(c5ccc(Br)c(F)c5)=NO4)[C@@H]3CC[C@@]2(C)C=CC1=O (stereo not given in full) | -0.05 |
| CC1=C2[C@H]3OC(=O)C4(C[C@H](c5ccc([N+](=O)[O-])cc5)N(c5ccccc5)O4)[C@@H]3CC[C@@]2(C)C=CC1=O (stereo not given in full) | -0.15 |

log10(IC50) in this record for CC1=C2[C@H]3OC(=O)C4(CC(c5cc(Cl)ccc5Cl)=NO4)[C@@H]3CC[C@@]2(C)C=CC1=O (stereo not given in full) : 1.59

Reported log10(IC50) of CC1=C2[C@H]3OC(=O)C4(CC(c5ccc(F)cc5)=NO4)[C@@H]3CC[C@@]2(C)C=CC1=O (stereo not given in full) : 2.00

// sample CC1=C2[C@H]3OC(=O)C4(C[C@@H](c5cccc([N+](=O)[O-])c5)N(c5ccccc5)O4)[C@@H]3CC[C@@]2(C)C=CC1=O (stereo not given in full) , its log10(IC50) was 1.36

log10(IC50) recorded for this molecule, CC1=C2[C@H]3OC(=O)C4(CC(c5ccc(Br)cc5)=NO4)[C@@H]3CC[C@@]2(C)C=CC1=O (stereo not given in full) , is -1.00

---

Tested on: MCF7
measurement-notes: Antiproliferative activity against human MCF7 cells after 48 hrs by sulforhodamine B assay
Assay type: functional, cell-based
test-conditions: MCF7, 48 h
Reported IC50 values follow for various compounds
Please state the figure in µM; there is no need to write the unit.

# count of solved cases: 3
| compound | metric-name | quantity-unit | experimental-value |
| --- | --- | --- | --- |
| CC1=C2[C@H]3OC(=O)C4(C[C@@H](c5ccc(F)c(Br)c5)N(c5ccccc5)O4)[C@@H]3CC[C@@]2(C)C=CC1=O (some centres undefined) | IC50 | µM | 0.7 |
| CC1=C2[C@H]3OC(=O)C4(C[C@@H](c5cc(Cl)ccc5Cl)N(c5ccccc5)O4)[C@@H]3CC[C@@]2(C)C=CC1=O (some centres undefined) | IC50 | µM | 0.5 |
| COc1ccc([C@@H]2CC3(ON2c2ccccc2)C(=O)O[C@@H]2C4=C(C)C(=O)C=C[C@]4(C)CC[C@H]23)cc1Br (some centres undefined) | IC50 | µM | 50 |

Alright, here's another compound for you.
Sure, the documented IC50 for CC1=C2[C@H]3OC(=O)C4(CC(c5ccc(O)cc5)=NO4)[C@@H]3CC[C@@]2(C)C=CC1=O (some centres undefined) is 100
